System: LOX IMVI
Assay: NCI tumour cell line growth inhibition, 48 h
Activity calls are given as the source filed them. Rule as the data show it: active = GI50 up to about 1.1 µM and inactive = higher.
readoutType: GI50

>>> print(df.to_string())
                                   molecule       recordedresult
0              CCC(CC)(CO)CNc1cc(Cl)nc(N)n1  > 100 µM (inactive)
1  Cc1cc(S(=O)(=O)Nc2nc(N)nc(N(C)C)n2)c(SCC(=O)O)cc1Cl   > 10 µM (inactive)
2  CCC12CCCN(Cc3ccccc3)C1c1c([nH]c3ccccc13)C(C(=O)OC)C2 (centres undefined)   > 10 µM (inactive)
3  O=S(=O)(c1ccccc1)N1CCN(S(=O)(=O)c2ccccc2)c2ccccc21  > 100 µM (inactive)

----------
Test system: TK-10
Test: NCI tumour cell line growth inhibition, 48 h
Calls of active or inactive are those of the source. Cut-off read from the data, not from the text of the source: active = GI50 up to about 1.1 µM and inactive = higher.
Labels: YES = active, NO = inactive

compound	label
O=C[C@@H](CO)O[C@H](C=O)c1c[nH]c(=O)[nH]c1=O	NO
O=C1/C(=C/c2ccc(Br)s2)NC(=S)N1CN1CCCCC1	NO
CC1=C(c2cc(C(=O)Nc3cccc(C(F)(F)F)c3)nc(NC#N)n2)Sc2ccccc2N1	NO
Cc1ccc(S(=O)(=O)N/N=C/C(=C/c2ccc(Cl)cc2)CC(/C=N/NS(=O)(=O)c2ccc(C)cc2)=C\c2ccc(Cl)cc2)cc1	NO
Cc1ccc(S(=O)(=O)Nn2c(-c3ccccc3)c(C#N)c(-c3ccc([N+](=O)[O-])cc3)c(C#N)c2=O)cc1	NO
COC(=O)[C@@H]1CN(C(=O)CCc2ccccc2)C(=O)N1C(=O)OCc1ccccc1	NO
COC(=O)C1(F)C(=O)NC(=O)NC1OC (stereo not drawn)	NO
COC(=O)C(Cc1c[nH]c2ccccc12)NC1=Nc2ccncc2S(=O)(=O)N1c1ccccc1 (stereo not drawn)	NO
COc1ccc(-c2cc(=O)c3c(O)c(OC)c(OC)c(OC)c3o2)cc1OC [5-DEMETHYLNOBILETIN]	NO
CC(CC(=O)O)(CC(=O)O)C(=O)O	NO
COC(=O)C1=C(OC(=O)/C(=C/c2ccccc2)c2ccc(Cl)cc2Cl)C(C(=O)OC)[C@@]2(O)[C@@H](C(=O)OC)[C@H](C)C[C@@H]1[C@@H]2C(=O)OC (stereo partly drawn)	NO
CC(C)C(=O)CP(=O)(O)O	NO
C[C@@H]1CCC2[C@@H](C)[C@H](O[C@H]3O[C@@H]4O[C@@]5(C)CCC6[C@H](C)CCC([C@H]3C)[C@]64OO5)O[C@@H]3O[C@@]4(C)CCC1[C@@]23OO4 (stereo partly drawn)	YES
CO/C=C(/C(=O)OC)c1ccccc1Oc1c(F)c(F)c(F)c(F)c1F	NO
CC1=C/C(O)CC(=O)Cc2nc(co2)C(=O)N2CCC=C2C(=O)OC(C(C)C)C(C)/C=C\C(=O)NC/C=C\1 (stereo not drawn)	NO
C=C1CCC2CC1[C@@H](C(=O)c1c[nH]c3ccccc13)NC2(C)C (stereo partly drawn)	NO
O=S(=O)(Nc1ccc2ccc3cccc4ccc1c2c34)c1ccccc1	NO
NCC(=O)N1CCN(c2nc(N3CCCC3)c3nc(Cl)c(NCc4ccccc4)nc3n2)CC1	NO

----------
// GI50 lookup, one value per entry
Tested on: CCRF-CEM
Assay: NCI tumour cell line growth inhibition, 48 h
The source made the active and inactive calls. Cut-off read from the data, not from the text of the source: active = GI50 up to about 1.1 µM and inactive = higher.
readoutType: GI50

>>> df
                                   molecule  readouttype       recordedresult
0  N#Cc1nn(C2OC(COC(=O)c3ccccc3)C(OC(=O)c3ccccc3)C2OC(=O)c2ccccc2)c2nc[nH]c(=O)c12 (stereo not given)         GI50   18.5 µM (inactive)
1  O=C(/C=N/c1ccccc1C(=O)[O-])c1cccs1.O=C(/C=N/c1ccccc1C(=O)[O-])c1cccs1.[Zn+2]         GI50   23.7 µM (inactive)
2       CN1CCN(Cc2ccc(C(=S)Nc3ccccc3)s2)CC1         GI50     24 µM (inactive)
3  NNC(=O)CC(=O)Nc1ccc(S(=O)(=O)c2ccc(NC(=O)CC(=O)NN)cc2)cc1         GI50  > 100 µM (inactive)
4  NC(=S)N/N=C\c1ccc(OCc2cccc(COc3ccc(/C=N/NC(N)=S)cc3)n2)cc1         GI50   45.7 µM (inactive)
